- System: NCI-H23 complex spheroids with HUVEC/MSC, viability
- protocolSummary: Anticancer human tumor NCI-H23 cell line growth inhibition [RAS];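 further: spheroids exposed to compound for 7 days; 100% = DMSO vehicle control viability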
- conditionContext: second compound 3.16 µM; first compound 10 µM; active compounds read low
measuredParameter: viability, T/C (%)
Only the number, expressed in %, is required.

Record excerpt, results attached:
[[record]]
compound = "Cc1nc(N2CCC3(CC2)COC(C)C3N)c(CO)nc1Sc1ccnc(N)c1Cl (stereo not drawn) + C#Cc1c(F)ccc2cc(O)cc(-c3ncc4c(N5CC6CCC(C5)N6)nc(OCC56CCCN5CC(F)C6)nc4c3F)c12"
recordedvalue = 26.9

[[record]]
compound = "CCC(CC)c1cc(NC2CCC(N)C2)n2nccc2n1 (stereo not drawn) + C#Cc1c(F)ccc2cc(O)cc(-c3ncc4c(N5CC6CCC(C5)N6)nc(OCC56CCCN5CC(F)C6)nc4c3F)c12"
recordedvalue = 0.62


Please examine the following record next.
I am curious: what viability, T/C value has been reported for CC(C)NCC(C(=O)N1CCN(c2ncnc3c2C(C)CC3O)CC1)c1ccc(Cl)cc1 (stereo not drawn) + C#Cc1c(F)ccc2cc(O)cc(-c3ncc4c(N5CC6CCC(C5)N6)nc(OCC56CCCN5CC(F)C6)nc4c3F)c12 ?
32.6
